# measured.target: CXCR4 receptor (human, UniProt P61073 1-352)
# Sequence (P61073 whole entry): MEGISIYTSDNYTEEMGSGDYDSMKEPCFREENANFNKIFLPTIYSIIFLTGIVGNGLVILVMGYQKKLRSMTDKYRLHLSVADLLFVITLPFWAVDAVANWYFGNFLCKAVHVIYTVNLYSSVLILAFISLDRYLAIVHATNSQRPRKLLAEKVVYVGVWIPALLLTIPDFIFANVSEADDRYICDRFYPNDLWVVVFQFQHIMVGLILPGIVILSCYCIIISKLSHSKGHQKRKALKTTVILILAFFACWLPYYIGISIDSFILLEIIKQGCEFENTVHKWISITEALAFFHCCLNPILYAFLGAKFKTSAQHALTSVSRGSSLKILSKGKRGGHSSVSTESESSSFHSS
# assay.comment: cell-based or functional assay
* marks the point of attachment. Palmitoyl = CCCCCCCCCCCCCCCC(=O)*
measured.attribute: AUC (% of vehicle), chemotaxis, SUPB-15, 1.0 uM

// Input: Palmitoyl-HATNSQRPRKLLA-NH2 (SMILES CCCCCCCCCCCCCCCC(=O)N[C@@H](Cc1c[nH]cn1)C(=O)N[C@@H](C)C(=O)N[C@H](C(=O)N[C@@H](CC(N)=O)C(=O)N[C@@H](CO)C(=O)N[C@@H](CCC(N)=O)C(=O)N[C@@H](CCCNC(=N)N)C(=O)N1CCC[C@H]1C(=O)N[C@@H](CCCNC(=N)N)C(=O)N[C@@H](CCCCN)C(=O)N[C@@H](CC(C)C)C(=O)N[C@@H](CC(C)C)C(=O)N[C@@H](C)C(N)=O)[C@@H](C)O) [CXCR4 i2 loop compound 80] . Output its AUC (% of vehicle), chemotaxis, SUPB-15, 1.0 uM only.
102 % of vehicle
